Target: Ribosomal protein S6 kinase alpha-2 (Homo sapiens) (UniProt Q15349);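 note: reported value is the mean percent inhibition of RSK3, from the GSK PKIS screening panel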
Sequence (Q15349 whole entry): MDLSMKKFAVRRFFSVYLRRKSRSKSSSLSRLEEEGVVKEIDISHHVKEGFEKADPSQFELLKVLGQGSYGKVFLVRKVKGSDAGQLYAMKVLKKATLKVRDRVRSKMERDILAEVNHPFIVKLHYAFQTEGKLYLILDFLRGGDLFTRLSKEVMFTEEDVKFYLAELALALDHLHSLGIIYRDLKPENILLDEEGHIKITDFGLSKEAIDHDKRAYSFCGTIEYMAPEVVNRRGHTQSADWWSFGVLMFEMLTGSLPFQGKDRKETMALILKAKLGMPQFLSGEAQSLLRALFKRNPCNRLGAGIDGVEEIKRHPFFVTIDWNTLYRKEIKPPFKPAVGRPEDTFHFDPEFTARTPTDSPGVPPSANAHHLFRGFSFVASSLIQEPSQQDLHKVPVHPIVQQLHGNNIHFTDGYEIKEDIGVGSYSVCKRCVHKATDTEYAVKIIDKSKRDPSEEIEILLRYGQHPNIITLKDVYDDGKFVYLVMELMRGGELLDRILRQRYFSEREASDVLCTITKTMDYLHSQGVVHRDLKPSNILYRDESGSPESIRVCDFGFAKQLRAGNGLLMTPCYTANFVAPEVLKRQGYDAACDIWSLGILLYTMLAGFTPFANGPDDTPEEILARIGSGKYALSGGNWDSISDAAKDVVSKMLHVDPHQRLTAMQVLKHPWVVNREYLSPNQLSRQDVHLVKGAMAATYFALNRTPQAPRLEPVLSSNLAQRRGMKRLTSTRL
Conditions: at 0.1 µM
inhibition values, listed per item
Answer in %, number only, no unit symbol.

Examples with answers:
Compound	Measurement Name	Readout Unit	Result Number
COc1cc2ncn(-c3cc(O[C@@H](C)c4ccccc4Cl)c(C(N)=O)s3)c2cc1OC	inhibition	%	3.03
CN1CCC(C(=O)Nc2n[nH]c3nnc(-c4ccccc4)cc23)CC1	inhibition	%	2.42

Inquiry: Value lookup for inhibition; key = CC1=C(C(=O)Nc2ccc3[nH]ncc3c2)C(c2ccc(F)cc2)NC(=O)N1 (stereo not given)
Reply text: 2.36

* * *

Molecular target: Misshapen-like kinase 1 (Homo sapiens) (UniProt Q8N4C8)
Sequence (Q8N4C8 whole entry, looked up): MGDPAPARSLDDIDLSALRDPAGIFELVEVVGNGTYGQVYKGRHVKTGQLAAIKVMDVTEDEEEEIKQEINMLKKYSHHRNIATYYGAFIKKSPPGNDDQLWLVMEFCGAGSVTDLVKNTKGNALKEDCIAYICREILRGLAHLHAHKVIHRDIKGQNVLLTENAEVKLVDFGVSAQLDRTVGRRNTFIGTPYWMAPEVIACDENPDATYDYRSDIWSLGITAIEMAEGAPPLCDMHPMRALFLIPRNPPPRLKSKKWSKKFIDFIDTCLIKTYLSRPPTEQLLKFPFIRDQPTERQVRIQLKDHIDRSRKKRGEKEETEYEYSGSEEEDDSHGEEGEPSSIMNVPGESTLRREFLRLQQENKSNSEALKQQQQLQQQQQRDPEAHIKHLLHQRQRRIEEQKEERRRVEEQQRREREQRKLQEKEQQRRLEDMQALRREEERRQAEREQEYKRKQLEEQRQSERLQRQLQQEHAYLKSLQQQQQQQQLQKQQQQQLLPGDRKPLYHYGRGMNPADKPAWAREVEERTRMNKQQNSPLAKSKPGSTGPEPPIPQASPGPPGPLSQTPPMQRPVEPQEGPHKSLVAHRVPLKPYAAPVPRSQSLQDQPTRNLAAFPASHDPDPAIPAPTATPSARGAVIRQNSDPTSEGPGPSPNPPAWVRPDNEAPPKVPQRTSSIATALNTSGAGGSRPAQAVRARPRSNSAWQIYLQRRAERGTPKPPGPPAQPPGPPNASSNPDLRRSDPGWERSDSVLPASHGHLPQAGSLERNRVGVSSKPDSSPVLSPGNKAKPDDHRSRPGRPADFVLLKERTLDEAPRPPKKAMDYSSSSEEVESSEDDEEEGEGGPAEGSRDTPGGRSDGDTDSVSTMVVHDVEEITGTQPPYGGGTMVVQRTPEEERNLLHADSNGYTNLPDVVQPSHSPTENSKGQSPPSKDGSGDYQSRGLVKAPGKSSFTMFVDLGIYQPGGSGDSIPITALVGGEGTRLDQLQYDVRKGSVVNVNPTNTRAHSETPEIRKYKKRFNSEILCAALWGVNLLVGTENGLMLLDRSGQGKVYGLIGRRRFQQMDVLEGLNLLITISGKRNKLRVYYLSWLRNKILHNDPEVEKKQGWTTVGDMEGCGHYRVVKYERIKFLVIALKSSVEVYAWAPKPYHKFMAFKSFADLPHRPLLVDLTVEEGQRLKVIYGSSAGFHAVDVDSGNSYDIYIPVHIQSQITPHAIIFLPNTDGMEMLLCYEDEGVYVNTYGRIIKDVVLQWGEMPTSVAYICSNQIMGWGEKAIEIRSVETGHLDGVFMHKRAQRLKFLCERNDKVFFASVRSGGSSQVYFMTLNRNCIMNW
Details: at 1 µM
Description: GSK_PKIS: MINK mean inhibition at 1 uM [Nanosyn]
Measurement Name: inhibition (%)
Answer in %, number only, no unit symbol.

Smiles Code	Measurement Name	Result Number
Nc1ncnc2occ(-c3ccc(NC(=O)Nc4cc(C(F)(F)F)cc(C(F)(F)F)c4)cc3)c12	inhibition	-1.47
Cc1nnc(-c2ccc(C)c(-c3ccc(C(=O)Nc4cccc(C#N)c4)cc3)c2)o1	inhibition	9.13
COc1cc2ncn(-c3cc(OCc4ccccc4Cl)c(C(N)=O)s3)c2cc1OC	inhibition	51
CC(=O)Nc1cccc(C#Cc2cncnc2Nc2ccc(OCc3cccc(F)c3)c(Cl)c2)n1	inhibition	10.7
Cc1cccc(-c2n[nH]cc2-c2ccc3ncccc3n2)n1	inhibition	19.5
O=C(Nc1n[nH]c2nc(-c3ccco3)c(Br)cc12)C1CC1	inhibition	8.29

Inquiry: Could you share what inhibition was measured for "CCn1c(-c2nonc2N)nc2cncc(C(=O)N3CCNCC3)c21" , tested on Misshapen-like kinase 1 (Homo sapiens) (UniProt Q8N4C8)?
Reply text: 6.02

Inquiry: Could you share what inhibition was measured for "CS(=O)(=O)CCN(CC#N)Cc1ccc(-c2ccc3ncnc(Nc4ccc(OCc5cccc(F)c5)c(Cl)c4)c3c2)o1" , tested on Misshapen-like kinase 1 (Homo sapiens) (UniProt Q8N4C8)?
Reply text: 3.9

Inquiry: Could you share what inhibition was measured for "COC(=O)Nc1nc2cc(Oc3cccc(NC(=O)Nc4cc(C(F)(F)F)ccc4F)c3)ccc2[nH]1" , tested on Misshapen-like kinase 1 (Homo sapiens) (UniProt Q8N4C8)?
Reply text: 3.21

* * *

inhibition values, listed per item
Biological target: Protein kinase C gamma type (Homo sapiens)
Details: at 0.1 µM
Answer in %, number only, no unit symbol.

Examples with answers:
Compound	inhibition, %
CN1CCC(C(=O)Nc2n[nH]c3nnc(-c4ccccc4)cc23)CC1	2.25
CN(C)c1cc2c(Nc3ccc4nc(Cc5ccccc5)[nH]c4c3)ncnc2cn1	3.66
CCn1c(-c2nonc2N)nc2c(C#CC(C)(C)O)nc(OC[C@@H](N)c3ccccc3)cc21	8.95
CCc1cccc(NC(=O)Nc2ccc(Oc3ccc4nc(NC(=O)OC)[nH]c4c3)cc2)c1	1.95

Inquiry: Could you share what inhibition was measured for "CS(=O)(=O)Nc1ccc(N/C=C2\C(=O)Nc3ccccc32)cc1" , tested on Protein kinase C gamma type (Homo sapiens)?
Reply text: -3.28

Inquiry: Could you share what inhibition was measured for "O=C1NC(=O)C(N2CCc3ccccc32)=C1c1ccc(Cl)cc1" , tested on Protein kinase C gamma type (Homo sapiens)?
Reply text: 5.52

Inquiry: Could you share what inhibition was measured for "O=C1Nc2ccc(C(=O)c3ccco3)cc2C1=Cc1cc(Cl)c(O)c(Cl)c1" , tested on Protein kinase C gamma type (Homo sapiens)?
Reply text: 1.31

Inquiry: Could you share what inhibition was measured for "O=C1NC(=O)C(c2cccc(Cl)c2)=C1Nc1ccc(O)c(Cl)c1" , tested on Protein kinase C gamma type (Homo sapiens)?
Reply text: -4.59

Inquiry: Could you share what inhibition was measured for CC1=C(C(=O)Nc2ccc3[nH]ncc3c2)C(c2ccc(F)cc2)NC(=O)N1 (stereo unspecified) , tested on Protein kinase C gamma type (Homo sapiens)?
Reply text: 0.38

Inquiry: Could you share what inhibition was measured for "COc1ccc(-c2coc3ncnc(N)c23)cc1" , tested on Protein kinase C gamma type (Homo sapiens)?
Reply text: 0.83

Inquiry: Could you share what inhibition was measured for "Cc1ccc(NC(=O)c2ccnc(N3CCCC3)c2)cc1-c1ccc(C(=O)NCC2CC2)cc1" , tested on Protein kinase C gamma type (Homo sapiens)?;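 note: values are mean percent inhibition of PKC gamma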
Reply text: 1.09

* * *

Target: Macrophage-stimulating protein receptor (Homo sapiens);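 note: reported values are the mean percent inhibition of RON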
Details: at 0.1 µM
Measurement Name: inhibition (%)
Answer in %, number only, no unit symbol.

Examples with answers:
Compound	Result Number
CC(C)=Cc1cccc2c1/C(=N/Nc1ccc(S(N)(=O)=O)cc1)C(=O)N2	2.03
COc1cc2ncn(-c3cc(O[C@@H](C)c4ccccc4Cl)c(C(N)=O)s3)c2cc1OC	-0.14

Here is the next item to consider.
Inquiry: Value lookup for inhibition; key = "CCCN1CCC(Oc2cc(Nc3nc(Nc4cccc(F)c4C(N)=O)c4cc[nH]c4n3)c(OC)cc2Cl)CC1"
Reply text: 1.16

* * *

Biological target: Tyrosine-protein kinase Fyn (Homo sapiens) (UniProt P06241)
Sequence (P06241 2-537 limits assumed): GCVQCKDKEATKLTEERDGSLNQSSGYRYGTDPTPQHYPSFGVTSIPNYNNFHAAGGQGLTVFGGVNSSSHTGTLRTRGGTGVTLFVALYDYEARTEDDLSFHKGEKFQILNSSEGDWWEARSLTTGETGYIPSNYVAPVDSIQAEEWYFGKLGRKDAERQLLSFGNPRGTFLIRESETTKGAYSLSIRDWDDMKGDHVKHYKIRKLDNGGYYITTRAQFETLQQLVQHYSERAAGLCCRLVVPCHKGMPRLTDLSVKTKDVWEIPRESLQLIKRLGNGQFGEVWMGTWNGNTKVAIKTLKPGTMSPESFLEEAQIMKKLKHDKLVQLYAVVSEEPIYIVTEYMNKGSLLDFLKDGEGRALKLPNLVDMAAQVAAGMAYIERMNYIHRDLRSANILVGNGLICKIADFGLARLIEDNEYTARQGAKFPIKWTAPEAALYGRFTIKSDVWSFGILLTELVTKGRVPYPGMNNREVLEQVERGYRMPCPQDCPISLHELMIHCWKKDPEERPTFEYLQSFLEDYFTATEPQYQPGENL
Conditions: at 1 µM
Description: GSK_PKIS: FYN mean inhibition at 1 uM [Nanosyn]
inhibition values, listed per item
Answer in %, number only, no unit symbol.

Examples with answers:
Smiles Code	inhibition / %
CS(=O)(=O)CCN(CC#N)Cc1ccc(-c2ccc3ncnc(Nc4ccc(OCc5cccc(F)c5)c(Cl)c4)c3c2)o1	-3.53
COc1ccccc1Nc1ncc(-c2ccccc2)o1	8.38
CNC(=O)c1cncc(/C=C/c2c(Cl)cccc2Cl)c1	15.1
Nc1nc(-c2ccccn2)c(-c2ccc3ncccc3n2)s1	-0.24

Inquiry: Could you share what inhibition was measured for "COc1ccc(-c2coc3ncnc(N)c23)cc1" , tested on Tyrosine-protein kinase Fyn (Homo sapiens) (UniProt P06241)?
Reply text: 2.02

Inquiry: Could you share what inhibition was measured for "Nc1nc(-c2ccc3c(c2)C(=Cc2cc(Br)c(O)c(Br)c2)C(=O)N3)cs1" , tested on Tyrosine-protein kinase Fyn (Homo sapiens) (UniProt P06241)?
Reply text: 8.82

Inquiry: Could you share what inhibition was measured for "Cn1cc(C=C2C(=O)Nc3cccnc32)c2ccccc21" , tested on Tyrosine-protein kinase Fyn (Homo sapiens) (UniProt P06241)?
Reply text: 15.4

Inquiry: Could you share what inhibition was measured for "O=C1NC(=O)C(c2cccc(Cl)c2)=C1Nc1ccc(O)c(Cl)c1" , tested on Tyrosine-protein kinase Fyn (Homo sapiens) (UniProt P06241)?
Reply text: 2.24

Inquiry: Could you share what inhibition was measured for "CCn1c(-c2nonc2N)nc2cnc(Oc3cccc(NC(=O)c4ccc(OCCN5CCOCC5)cc4)c3)cc21" , tested on Tyrosine-protein kinase Fyn (Homo sapiens) (UniProt P06241)?
Reply text: 5.35

Inquiry: Could you share what inhibition was measured for "COc1cc(C)c(NC(=O)CN(C)C)cc1Nc1nc(Nc2cccc(F)c2C(N)=O)c2cc[nH]c2n1" , tested on Tyrosine-protein kinase Fyn (Homo sapiens) (UniProt P06241)?
Reply text: 2.42

* * *

Target: Tyrosine-protein kinase JAK2 (Homo sapiens) (UniProt O60674);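 note: mean JAK2 inhibition from the GSK PKIS screen, compounds tested at 1 µM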
Sequence (O60674 whole entry): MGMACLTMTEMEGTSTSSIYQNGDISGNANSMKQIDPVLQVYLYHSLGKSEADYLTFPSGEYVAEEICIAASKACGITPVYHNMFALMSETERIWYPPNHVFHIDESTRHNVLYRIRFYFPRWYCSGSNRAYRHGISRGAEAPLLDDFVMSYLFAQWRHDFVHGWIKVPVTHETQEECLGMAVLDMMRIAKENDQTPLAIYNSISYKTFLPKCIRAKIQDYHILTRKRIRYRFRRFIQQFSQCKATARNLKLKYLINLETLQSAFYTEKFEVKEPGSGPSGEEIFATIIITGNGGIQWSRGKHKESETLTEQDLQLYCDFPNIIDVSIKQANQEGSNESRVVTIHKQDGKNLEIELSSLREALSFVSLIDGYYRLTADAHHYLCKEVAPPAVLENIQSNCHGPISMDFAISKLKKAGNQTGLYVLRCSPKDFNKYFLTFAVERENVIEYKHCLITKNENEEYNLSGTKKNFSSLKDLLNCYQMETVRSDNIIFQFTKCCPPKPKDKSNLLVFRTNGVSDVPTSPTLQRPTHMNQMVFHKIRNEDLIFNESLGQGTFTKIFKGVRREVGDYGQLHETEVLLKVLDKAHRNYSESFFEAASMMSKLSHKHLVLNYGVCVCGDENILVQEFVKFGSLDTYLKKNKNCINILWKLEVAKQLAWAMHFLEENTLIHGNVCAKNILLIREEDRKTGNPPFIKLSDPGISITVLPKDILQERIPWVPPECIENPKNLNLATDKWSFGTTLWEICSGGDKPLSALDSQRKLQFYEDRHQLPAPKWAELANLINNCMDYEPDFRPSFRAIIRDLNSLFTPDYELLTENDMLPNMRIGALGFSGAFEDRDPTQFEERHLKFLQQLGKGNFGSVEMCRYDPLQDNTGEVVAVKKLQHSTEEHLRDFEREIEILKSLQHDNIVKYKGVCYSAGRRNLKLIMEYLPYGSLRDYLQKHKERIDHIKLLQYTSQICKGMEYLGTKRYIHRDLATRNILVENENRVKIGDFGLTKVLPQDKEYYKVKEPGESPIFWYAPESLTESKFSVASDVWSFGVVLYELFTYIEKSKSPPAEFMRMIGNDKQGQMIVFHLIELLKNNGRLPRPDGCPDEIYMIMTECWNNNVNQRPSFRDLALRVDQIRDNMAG
Conditions: at 1 µM
Measurement Name: inhibition (%)
Answer in %, number only, no unit symbol.

Inquiry: Value lookup for inhibition; key = "CCn1c(-c2nonc2N)nc2cnc(Oc3cccc(NC(=O)c4ccc(OCCN5CCOCC5)cc4)c3)cc21"
Reply text: 1.29

Inquiry: Value lookup for inhibition; key = "Nc1ncnc2occ(-c3ccc(NC(=O)Nc4cccc(C(F)(F)F)c4)cc3)c12"
Reply text: 9.83

* * *

Biological target: RAF proto-oncogene serine/threonine-protein kinase (Homo sapiens);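 note: values are the mean percent inhibition of CRAF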
Settings: at 1 µM
Measurement Name: inhibition (%)
Answer in %, number only, no unit symbol.

Smiles Code	Measurement Name	Result Number
CCn1c(-c2nonc2N)nc2cnc(Oc3cccc(NC(=O)c4ccc(OCCN5CCOCC5)cc4)c3)cc21	inhibition	6.03
COc1cccc(-n2ncc3c(N/N=C/c4cccc(F)c4)ncnc32)c1	inhibition	-6.84
NCc1ccc(-c2nc(-c3ccc(Cl)c(O)c3)c(-c3ccncc3)[nH]2)cc1	inhibition	76.6

Inquiry: Value lookup for inhibition; key = "O=C1NC(=O)C(c2cccc(Cl)c2)=C1Nc1ccc(O)c(Cl)c1"
Reply text: 3.11

Inquiry: Value lookup for inhibition; key = "COc1ccc(-c2nn3ncccc3c2-c2ccnc(Nc3ccc(Cl)c(C(F)(F)F)c3)n2)cc1"
Reply text: -8.01

Inquiry: Value lookup for inhibition; key = "CS(=O)(=O)CCNCc1ccc(-c2ccc3ncnc(Nc4ccc(OCc5cccc(F)c5)c(C(F)(F)F)c4)c3c2)o1"
Reply text: 12.1

Inquiry: Value lookup for inhibition; key = "CCc1cccc(NC(=O)Nc2ccc(Oc3ccc4nc(NC(=O)OC)[nH]c4c3)cc2)c1"
Reply text: 4.58

Inquiry: Value lookup for inhibition; key = "CS(=O)(=O)CCNCc1nc(-c2ccc3ncnc(Nc4ccc(F)c(Cl)c4)c3c2)cs1"
Reply text: -0.82

Inquiry: Value lookup for inhibition; key = "CC(C)=Cc1cccc2c1/C(=N/Nc1ccc(S(N)(=O)=O)cc1)C(=O)N2"
Reply text: -1.14

* * *

Target: Casein kinase II subunit alpha (Homo sapiens) (UniProt P68400)
Sequence (P68400 whole entry, looked up): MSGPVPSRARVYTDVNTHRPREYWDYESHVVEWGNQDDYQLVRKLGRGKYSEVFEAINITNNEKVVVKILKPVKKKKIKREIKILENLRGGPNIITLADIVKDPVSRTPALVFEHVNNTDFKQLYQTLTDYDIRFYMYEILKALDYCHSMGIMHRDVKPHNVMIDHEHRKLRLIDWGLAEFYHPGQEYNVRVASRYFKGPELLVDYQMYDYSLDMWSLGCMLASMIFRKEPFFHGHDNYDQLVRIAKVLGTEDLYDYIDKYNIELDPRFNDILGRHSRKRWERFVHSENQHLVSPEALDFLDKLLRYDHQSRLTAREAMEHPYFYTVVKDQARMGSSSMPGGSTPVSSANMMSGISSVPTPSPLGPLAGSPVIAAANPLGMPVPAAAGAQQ
Conditions: at 0.1 µM
Description: GSK_PKIS: CK2 mean inhibition at 0.1 uM [Nanosyn]
Measurement Name: inhibition (%)
Answer in %, number only, no unit symbol.

Compound	Readout Unit	inhibition
Nc1nc(-c2ccc3c(c2)C(=Cc2cc(Br)c(O)c(Br)c2)C(=O)N3)cs1	%	2.7
COc1cccc(-n2ncc3c(N/N=C/c4cccc(F)c4)ncnc32)c1	%	1.77
CC1=C(C(=O)Nc2ccc3[nH]ncc3c2)C(c2ccc(Cl)c(Cl)c2)CC(=O)N1 (centres undefined)	%	2.1

Here is the next item to consider.
Inquiry: Could you share what inhibition was measured for "CCCN1CCC=C(c2ccc(Nc3nc(Nc4ccccc4C(N)=O)c4cc[nH]c4n3)c(C)c2)C1" , tested on Casein kinase II subunit alpha (Homo sapiens) (UniProt P68400)?
Reply text: 33.7
